Quick list: Ki per entry.
# measured-on: Substance-K receptor (Homo sapiens)
# Sequence (P21452 whole entry): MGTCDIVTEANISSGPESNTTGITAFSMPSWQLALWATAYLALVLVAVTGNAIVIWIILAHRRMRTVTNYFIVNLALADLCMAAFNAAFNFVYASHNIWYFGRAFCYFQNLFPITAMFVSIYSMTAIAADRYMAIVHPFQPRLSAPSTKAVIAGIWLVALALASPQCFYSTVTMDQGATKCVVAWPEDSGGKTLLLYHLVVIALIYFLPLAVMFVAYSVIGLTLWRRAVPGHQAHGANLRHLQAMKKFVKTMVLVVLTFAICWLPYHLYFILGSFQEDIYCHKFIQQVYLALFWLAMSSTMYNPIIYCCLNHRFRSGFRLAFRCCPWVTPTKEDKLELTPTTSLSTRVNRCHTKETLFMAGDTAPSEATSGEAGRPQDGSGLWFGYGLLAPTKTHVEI
metric-name: Ki (nM)

[[record]]
compound = "COc1cc(C(=O)N2CC[C@@](CCN3CCC(C(N)=O)(c4ccccc4)CC3)(c3ccc(Cl)c(Cl)c3)C2)cc(OC)c1OC [MDL 105,212A (R)-enantiomer]"
value_reported = 7.93

[[record]]
compound = "CC(=O)NC1(c2ccccc2)CCN(CCC(CN(C)C(=O)c2ccccc2)c2ccc(Cl)c(Cl)c2)CC1 (centres undefined) [SR 48968]"
value_reported = 0.44

[[record]]
compound = "COc1cc(C(=O)N2CC[C@](CCN3CCC(C(N)=O)(c4ccccc4)CC3)(c3ccc(Cl)c(Cl)c3)C2)cc(OC)c1OC"
value_reported = 760

[[record]]
compound = "COc1cc(C(=O)N2CC[C@@](CCN3CCC(C(N)=O)(c4ccccc4)CC3)(c3ccc(Cl)c(Cl)c3)C2)cc(OC)c1OC"
value_reported = 8.4

